assay: Plasma concentration versus time of Compound I and metabolite Compound III in patients dosed QD or BID with Form B of Compound II plus fulvestrant
Assay type: in vivo, human
studyConditions: human, plasma, oral, 400 mg, Cohort 3, 400 mg QD of Form B, Day 15; read-out: Trough Compound III Concentration, Mean
assayReadout: concentration at 15 day (ng/mL)

O=C1NCC2(CCCCC2)n2c1cc1cnc(Nc3ccc(N4CCNCC4)cn3)nc12 ... 0.435

---

assay: Plasma concentration versus time of Compound I and metabolite Compound III in patients dosed QD or BID with Form B of Compound II plus fulvestrant
Assay type: in vivo, human
studyConditions: human, plasma, oral, 650 mg, Cohort 5, 650 mg QD of Form B, Day 8; read-out: Trough Compound III Concentration, Median
assayReadout: concentration at 8 day

O=C1NCC2(CCCCC2)n2c1cc1cnc(Nc3ccc(N4CCNCC4)cn3)nc12 [Compound III] ... 3.79 ng/mL
